Data origin, for the record: the RNAGym collection of RNA variant scans (doi:10.7554/elife.80360)

B1: Hairpin Ribozyme (parent)
chain: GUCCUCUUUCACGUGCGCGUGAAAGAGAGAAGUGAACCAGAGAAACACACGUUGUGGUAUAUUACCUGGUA

- Variants of: B1
- test-summary: self-cleavage, relative activity (ratio to wild type); higher = more cleavage; co-transcriptional
assay-readout: self-cleavage
One number for each entry.

Known self-cleavage results, listed for orientation:
{"mutation-code": "U14G A23G", "self-cleavage": 0.703}
{"mutation-code": "A41C U67C", "self-cleavage": 0.249}
{"mutation-code": "G29A U52A", "self-cleavage": 0.115}

Items follow; give self-cleavage for each.
1. C18U A31U
2. A41G C65U

Reply:
0.112
1.05

Count: 4. Required value per item: self-cleavage.
1. C16U A71U
2. U62G G68C
3. A49G C50U
4. G42U G54A

Reply:
1. 0.859
2. 0.186
3. 0.129
4. 0.197

Each of the following entries comes with a recorded value; kindly state self-cleavage for each.
1. C6U U62C
2. A23G A39G
3. C6A G42A
4. A45G C50U
5. C10A A36U
6. C50G C65G

Reply:
0.188
0.353
0.161
0.174
0.43
0.161

// each variant listed below needs its self-cleavage
1. U53C C66U
2. A24G C38U

Reply:
1. 0.69
2. 0.31
